This collection of values is drawn from patent US20230399312A1.

Here, each record is paired with measured IC50 data.
# Test system: TGF-β-stimulated SMAD3 phosphorylation in BEAS-2B cells
# assay_info: Cellular ALK5 potency assay, inhibition of TGF-β stimulated pSMAD3 formation in BEAS-2B cells
# Assay type: cell-based
# details: Homo sapiens, pSMAD3, TGF-β 10 ng/mL, read-out: BEAS2B pIC50 (converted)
measured_parameter: IC50

• Cc1cccc(-c2nccc(Nc3ccnc(Nc4ccc(N5CC6(CNC6)C5)cc4)n3)n2)n1 = 25.1 to 158 nM
• Cc1cccc(-c2nccc(Nc3ccnc(Nc4ccc(S(=O)(=O)N5CCN(C(C)C)CC5)cc4)n3)n2)n1 = 25.1 to 158 nM
• Cc1cccc(-c2nccc(Nc3ccnc(Nc4ccc(NCCO)cc4)n3)n2)n1 = 25.1 to 158 nM
• Cc1cccc(-c2nccc(Nc3ccnc(Nc4ccc(C(=O)O)s4)n3)n2)n1 = 200 to 1260 nM
• Cc1cccc(-c2nccc(Nc3ccnc(Nc4cccc(CN5CCNCC5)c4)n3)n2)n1 = 25.1 to 158 nM
• Cc1cccc(-c2nccc(Nc3ccnc(Nc4ccc(N[C@H]5CCNC5)cc4)n3)n2)n1 = 25.1 to 158 nM
• Cc1cccc(-c2nccc(Nc3ccnc(Nc4ccc(N5CCC(N(C)C)CC5)cc4)n3)n2)n1 = 200 to 1260 nM
• Cc1cccc(-c2nccc(Nc3ccnc(Nc4ccc(N(C)C5CNC5)cc4)n3)n2)n1 = 25.1 to 158 nM
• Cc1cccc(-c2nccc(Nc3ccnc(Nc4ccc(CO)cc4)n3)n2)n1 = ≤ 20 nM
• Cc1cccc(-c2nccc(Nc3ccnc(Nc4ccc(S(=O)(=O)N5CCN(C6CC6)CC5)cc4)n3)n2)n1 = 25.1 to 158 nM
• Cc1cccc(-c2nccc(Nc3ccnc(Nc4cc(C(=O)O[C@H]5CCN(C)C5)cs4)n3)n2)n1 = 25.1 to 158 nM
• Cc1cccc(-c2nccc(Nc3ccnc(Nc4ccc(S(N)(=O)=O)cc4)n3)n2)n1 = 25.1 to 158 nM
• Cc1cccc(-c2nccc(Nc3ccnc(Nc4ccc(CN5CCC[C@H](C(=O)O[C@H]6CCN(C)C6)C5)cc4)n3)n2)n1 = ≤ 20 nM
• CCOC(=O)Cc1cc(Nc2nccc(Nc3ccnc(-c4cccc(C)n4)n3)n2)ccc1N1CCNCC1 = 25.1 to 158 nM
• Cc1cccc(-c2nccc(Nc3ccnc(Nc4nc(C(=O)N5CCNCC5)cs4)n3)n2)n1 = 25.1 to 158 nM
• COC(=O)[C@H]1CN(c2ccc(Nc3nccc(Nc4ccnc(-c5cccc(C)n5)n4)n3)cc2)CCN1 = 25.1 to 158 nM
• Cc1cccc(-c2nccc(Nc3ccnc(Nc4ccc(CN5CC(OCCO)C5)cc4)n3)n2)n1 = 25.1 to 158 nM
• Cc1cccc(-c2nccc(Nc3ccnc(Nc4ccc(N5CCCC(C(=O)OC6CCN(C)C6)C5)cc4)n3)n2)n1 (stereo not shown) = 25.1 to 158 nM
• Cc1cccc(-c2nccc(Nc3ccnc(Nc4ccc(CN5CC(C(=O)O)C5)nc4)n3)n2)n1 = 200 to 1260 nM
• Cc1cccc(-c2nccc(Nc3ccnc(Nc4ccc(CN5C[C@@H](C)NC[C@H]5C)cc4)n3)n2)n1 = 25.1 to 158 nM
• COC(=O)CC1CN(Cc2cccc(Nc3nccc(Nc4ccnc(-c5cccc(C)n5)n4)n3)c2)CCN1 (stereo not shown) = 25.1 to 158 nM
• Cc1cccc(-c2nccc(Nc3ccnc(Nc4ccc(N5CCN(CC(C)C)CC5)cc4)n3)n2)n1 = 25.1 to 158 nM
• Cc1cccc(-c2nccc(Nc3ccnc(Nc4ccc(C(=O)O[C@H]5CCN(C)C5)s4)n3)n2)n1 = 25.1 to 158 nM
• Fc1cc(F)c(-c2nccc(Nc3ccnc(Nc4ccc(N5CCC(N6CCCC6)CC5)cc4)n3)n2)cc1Cl = 25.1 to 158 nM
• Cc1cccc(-c2nccc(Nc3ccnc(Nc4cccc(C(=O)N5CCNCC5)c4)n3)n2)n1 = 25.1 to 158 nM
• Cc1cccc(-c2nccc(Nc3ccnc(Nc4cccc(N5CCN(C)CC5)c4)n3)n2)n1 = 25.1 to 158 nM
• Fc1ccc(-c2nccc(Nc3ccnc(Nc4ccc(N5CCOCC5)cc4)n3)n2)nc1C(F)F = 25.1 to 158 nM
• CC(=O)N1CCN(c2ccc(Nc3nccc(Nc4ccnc(-c5cccc(C)n5)n4)n3)cc2)CC1 = ≤ 20 nM
• Cc1cccc(-c2nccc(Nc3ccnc(Nc4ccnc(C(=O)O)c4)n3)n2)n1 = 1580 to 10000 nM
• Cc1cccc(-c2nccc(Nc3ccnc(Nc4ncc(C(=O)N5CCNCC5)s4)n3)n2)n1 = 200 to 1260 nM
• Cc1cccc(-c2nc(Nc3ccnc(Nc4ccc(NC(=O)[C@H]5C[C@@H](N)C5)cc4)n3)c3cccn3n2)n1 = 25.1 to 158 nM

###

# Tested on: TGF-β-stimulated SMAD3 phosphorylation in BEAS-2B cells
# assay_info: Cellular ALK5 potency assay, inhibition of TGF-β stimulated pSMAD3 formation in BEAS-2B cells
# Format: cell-based
# details: Homo sapiens, pSMAD3, TGF-β 10 ng/mL, read-out: BEAS2B pIC50 (converted)
Here, each record is paired with measured IC50 data.
measured_parameter: IC50

- Cc1cccc(-c2nccc(Nc3ccnc(Nc4ccc(S(=O)(=O)N5CCOCC5)cc4)n3)n2)n1: 25.1 to 158 nM
- Cc1cccc(-c2nccc(Nc3ccnc(Nc4ccc(C(=O)O[C@@H]5CCCNC5)nc4)n3)n2)n1: 200 to 1260 nM
- Cc1cccc(-c2nccc(Nc3ccnc(Nc4ccc(CN5CCN[C@H](CO)C5)cc4)n3)n2)n1: 25.1 to 158 nM
- Cc1cccc(-c2nccc(Nc3ccnc(Nc4ccc(N5CCNCC5)cc4)n3)n2)n1: 25.1 to 158 nM
- Cc1cccc(-c2nccc(Nc3ccnc(Nc4ccc(F)c(CO)c4)n3)n2)n1: ≤ 20 nM
- Cc1cccc(-c2nccc(Nc3ccnc(Nc4ccc(CN5CC[C@H](O)C5)cc4)n3)n2)n1: 25.1 to 158 nM
- Cc1cccc(-c2nccc(Nc3ccnc(Nc4ccc(C(=O)OC[C@H]5CCNC5)nc4)n3)n2)n1: 25.1 to 158 nM
- Cc1cccc(-c2nccc(Nc3ccnc(Nc4ccc(S(=O)(=O)N5CCN(C(=O)NC(C)C)CC5)cc4)n3)n2)n1: 200 to 1260 nM

###

# assayed_target: recombinant human ALK5 (TGF-βR1) protein (Homo sapiens)
# Sequence (P36897 34-503): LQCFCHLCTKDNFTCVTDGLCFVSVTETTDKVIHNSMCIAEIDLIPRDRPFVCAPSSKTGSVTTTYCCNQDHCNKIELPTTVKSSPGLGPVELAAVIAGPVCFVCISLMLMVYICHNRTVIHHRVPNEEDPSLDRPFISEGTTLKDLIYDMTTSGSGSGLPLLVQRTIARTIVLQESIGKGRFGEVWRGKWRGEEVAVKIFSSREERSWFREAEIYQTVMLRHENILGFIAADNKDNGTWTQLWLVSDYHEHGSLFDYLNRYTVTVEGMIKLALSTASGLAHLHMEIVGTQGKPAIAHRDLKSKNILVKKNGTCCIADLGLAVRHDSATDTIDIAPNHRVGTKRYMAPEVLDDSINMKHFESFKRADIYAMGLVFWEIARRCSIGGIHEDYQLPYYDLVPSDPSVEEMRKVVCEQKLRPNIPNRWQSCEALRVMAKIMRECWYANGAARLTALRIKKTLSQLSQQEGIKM
# assay_info: Biochemical ALK5 (TGF-βR1) assay to measure pKi (LANCE Ultra ULight kinase assay)
# details: apparent pKi, converted from pIC50 by Cheng-Prusoff
pKi: −log10 of the molar value.
Here, each record is paired with measured pKi data.
measured_parameter: pKi

• Cc1cccc(-c2nccc(Nc3ccnc(Nc4ccc(NS(=O)(=O)N5CCN(C)CC5)cc4)n3)n2)n1 [Compound 303] = 8.50 to 9.40
• Cc1cccc(-c2nccc(Nc3ccnc(Nc4ccc(N(C)C(=O)C5CCNCC5)cc4)n3)n2)n1 [Compound 416] = 9.50 to 10.40
• Cc1cccc(-c2nccc(Nc3ccnc(Nc4cc(C(=O)OCC5CNC5)ccn4)n3)n2)n1 [Compound 608] = 7.50 to 8.40
• Cc1cccc(-c2nccc(Nc3ccnc(Nc4csc(C(=O)OC[C@H]5CCCCN5)c4)n3)n2)n1 [Compound 588] = 9.50 to 10.40
• Cc1cccc(-c2nccc(Nc3ccnc(Nc4cccc(N)c4)n3)n2)n1 [Compound 315] = 9.50 to 10.40
• Fc1cc(F)c(-c2ncc(C3CC3)c(Nc3ccnc(Nc4ccc(N5CCNCC5)cc4)n3)n2)cc1Cl [Compound 540] = 9.50 to 10.40
• Cc1cccc(-c2nccc(Nc3ccnc(Nc4csc(C(=O)OC5CCNCC5)c4)n3)n2)n1 [Compound 591] = 9.50 to 10.40
• Cc1cccc(-c2nccc(Nc3ccnc(Nc4ccc(C(=O)OC5CNC5)s4)n3)n2)n1 [Compound 258] = 9.50 to 10.40
• Cc1cccc(-c2nccc(Nc3ccnc(Nc4ccc(NS(=O)(=O)N(C)C5CCNCC5)cc4)n3)n2)n1 [Compound 441] = 9.50 to 10.40
• CNC(=O)[C@@H]1CN(c2ccc(Nc3nccc(Nc4ccnc(-c5cccc(C)n5)n4)n3)cc2)CCN1 [Compound 367] = 9.50 to 10.40
• Cc1cccc(-c2nccc(Nc3ccnc(Nc4cncc(CN5CC(C(=O)OC6CCNCC6)C5)c4)n3)n2)n1 [Compound 565] = 9.50 to 10.40
• COc1ccc(Nc2nccc(Nc3ccnc(-c4cccc(C)n4)n3)n2)cc1CN1C[C@@H](C)N[C@@H](C)C1 [Compound 431] = 9.50 to 10.40
• Cc1cccc(-c2nc(Nc3ccnc(Nc4ccc(NC5CCNC5)cc4)n3)c3cccn3n2)n1 (stereo not drawn) [Compound 1041] = 9.50 to 10.40
• COCCn1cc(-c2ccc(Nc3nccc(Nc4ccnc(-c5cccc(C)n5)n4)n3)cc2)cn1 [Compound 169] = 8.50 to 9.40
• Cc1cccc(-c2nccc(Nc3ccnc(Nc4ccc(S(=O)(=O)N5CCNCC5)cc4)n3)n2)n1 [Compound 21] = 9.50 to 10.40
